target: UniProtKB P30411; assay: cell-based human bradykinin B2 receptor calcium mobilization (hB2R-CaM) assay; details: HTS041C cells, bradykinin at EC80, calcium mobilization; read-out: IC50-value towards human bradykinin B2 receptor (hB2R)
Sequence (P30411 whole entry): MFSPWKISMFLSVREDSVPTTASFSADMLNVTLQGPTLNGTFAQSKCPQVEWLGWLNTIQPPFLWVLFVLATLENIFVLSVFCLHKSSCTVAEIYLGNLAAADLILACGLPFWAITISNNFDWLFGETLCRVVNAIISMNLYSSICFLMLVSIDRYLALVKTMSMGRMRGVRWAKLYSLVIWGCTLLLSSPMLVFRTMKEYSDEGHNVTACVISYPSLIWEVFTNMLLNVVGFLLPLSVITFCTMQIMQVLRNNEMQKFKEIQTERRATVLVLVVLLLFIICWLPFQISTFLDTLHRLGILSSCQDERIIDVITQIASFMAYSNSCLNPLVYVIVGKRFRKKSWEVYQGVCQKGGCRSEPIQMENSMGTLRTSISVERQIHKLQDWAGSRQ
assay_readout: IC50

Cc1cc(-n2ncnc2C)c2cccc(OCc3c(Cl)cc(F)cc3[C@H](C)NC(=O)C(C)(C)O)c2n1    ≤ 50 nM

Data point: CCn1ncnc1-c1cc(C)nc2c(OCc3c(Cl)cc(F)cc3[C@H](C)NC(=O)C(C)(C)O)cccc12 ; IC50 = ≤ 50 nM

Query Cc1cc(-n2ncnc2C)c2cccc(OCc3c(Cl)cc(F)cc3[C@H](C)NC(=O)[C@@H](C)O)c2n1 yields IC50 of 51 to 250 nM

Value of measured IC50 for the entry Cc1cc(-n2cc(F)cn2)c2cccc(OCc3c(Cl)cc(F)cc3[C@H](C)NC(=O)[C@@H]3COC(=O)N3)c2n1 : 51 to 250 nM

get_value(item= Cc1cc(-c2ncnn2C)c2cccc(OCc3c(Cl)cc(F)cc3[C@H](C)NC(=O)c3coc(C)n3)c2n1 , readout=IC50) returns ≤ 50 nM

Lab note: measured IC50 of Cc1cc(-n2cc(F)cn2)c2cccc(OCc3c(Cl)cc(F)cc3[C@H](C)NC(=O)C[C@H](C)O)c2n1 was ≤ 50 nM

Ref: patent US11820756B2
